TESTED SYSTEM: IGF-1R (Homo sapiens, UniProt P08069)
Sequence (P08069 31-1367): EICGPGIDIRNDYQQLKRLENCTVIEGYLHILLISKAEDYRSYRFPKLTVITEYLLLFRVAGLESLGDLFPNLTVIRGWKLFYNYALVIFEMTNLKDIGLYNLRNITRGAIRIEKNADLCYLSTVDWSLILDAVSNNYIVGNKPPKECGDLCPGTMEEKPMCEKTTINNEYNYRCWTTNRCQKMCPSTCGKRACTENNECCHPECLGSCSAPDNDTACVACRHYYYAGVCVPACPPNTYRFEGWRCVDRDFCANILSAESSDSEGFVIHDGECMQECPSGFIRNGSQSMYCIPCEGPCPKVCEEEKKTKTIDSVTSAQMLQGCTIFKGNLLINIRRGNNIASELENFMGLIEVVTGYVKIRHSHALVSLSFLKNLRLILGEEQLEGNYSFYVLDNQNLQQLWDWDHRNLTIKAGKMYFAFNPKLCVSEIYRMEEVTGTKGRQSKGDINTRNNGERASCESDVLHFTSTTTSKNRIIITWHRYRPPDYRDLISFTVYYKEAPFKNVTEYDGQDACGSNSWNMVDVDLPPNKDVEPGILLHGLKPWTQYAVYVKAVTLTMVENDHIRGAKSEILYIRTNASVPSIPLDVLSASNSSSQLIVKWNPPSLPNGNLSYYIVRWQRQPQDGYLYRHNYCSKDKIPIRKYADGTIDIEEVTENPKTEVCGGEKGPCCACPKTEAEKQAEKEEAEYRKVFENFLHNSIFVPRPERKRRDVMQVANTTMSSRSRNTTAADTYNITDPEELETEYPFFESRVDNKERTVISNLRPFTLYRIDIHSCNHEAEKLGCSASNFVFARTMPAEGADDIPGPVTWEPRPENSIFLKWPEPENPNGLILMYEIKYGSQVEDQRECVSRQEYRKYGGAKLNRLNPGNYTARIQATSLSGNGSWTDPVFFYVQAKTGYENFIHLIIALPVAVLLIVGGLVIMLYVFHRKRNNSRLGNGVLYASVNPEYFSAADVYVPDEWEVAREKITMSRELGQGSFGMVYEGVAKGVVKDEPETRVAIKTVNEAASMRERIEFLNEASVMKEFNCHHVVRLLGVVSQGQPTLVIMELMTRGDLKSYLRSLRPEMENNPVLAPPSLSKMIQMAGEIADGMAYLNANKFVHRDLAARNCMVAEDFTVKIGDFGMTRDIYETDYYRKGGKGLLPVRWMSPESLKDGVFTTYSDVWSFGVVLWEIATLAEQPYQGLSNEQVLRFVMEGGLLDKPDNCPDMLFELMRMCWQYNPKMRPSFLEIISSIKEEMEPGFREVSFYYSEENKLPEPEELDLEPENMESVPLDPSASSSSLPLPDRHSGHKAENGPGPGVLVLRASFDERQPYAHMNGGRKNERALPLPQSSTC
ASSAY NAME: IGFR1 activity assay (ELISA)
Assay type: biochemical
EXPERIMENTAL CONDITIONS: read-out: IGF-1R, PCT INH (30 μM), ELISA
inhibition at 30 µM values, listed per item

ITEM SMILES | TESTED SYSTEM | TEST RESULT
Cc1ccc(-c2c(-c3ccc[nH]c3=O)[nH]c3ccc(C(=O)NCCCN4CCOCC4)cc23)cc1F | IGF-1R (Homo sapiens, UniProt P08069) | 80 to 100%
O=C(NCCCN1CCOCC1)c1ccc2[nH]c(-c3ccc[nH]c3=O)c(-c3ccc(Cl)cc3)c2c1 | IGF-1R (Homo sapiens, UniProt P08069) | 80 to 100%
O=C(Nc1ccc(F)cc1Cl)c1ccc2[nH]c(-c3ccc[nH]c3=O)c(-c3ccccc3)c2c1 | IGF-1R (Homo sapiens, UniProt P08069) | < 50%
O=C(NCCc1ccccn1)c1ccc2[nH]c(-c3ccc[nH]c3=O)c(-c3ccc(-c4ccccc4)cc3)c2c1 | IGF-1R (Homo sapiens, UniProt P08069) | 50 to 79%
O=C(NCCCN1CCOCC1)c1ccc2[nH]c(-c3ccc[nH]c3=O)c(-c3ccc(Cl)c(Cl)c3)c2c1 | IGF-1R (Homo sapiens, UniProt P08069) | 50 to 79%

Lab note: need inhibition at 30 µM with IGF-1R (Homo sapiens, UniProt P08069) for entry COC(=O)c1ccc2[nH]c(-c3ccc[nH]c3=O)c(-c3ccc(-c4ccccc4)cc3)c2c1 , please look it up.
< 50%

Lab note: need inhibition at 30 µM with IGF-1R (Homo sapiens, UniProt P08069) for entry CN(C(=O)c1ccc2[nH]c(-c3ccc[nH]c3=O)c(-c3ccccc3)c2c1)c1ccc(F)cc1 , please look it up.
80 to 100%

Lab note: need inhibition at 30 µM with IGF-1R (Homo sapiens, UniProt P08069) for entry O=C(c1ccc2[nH]c(-c3ccc[nH]c3=O)c(-c3ccccc3)c2c1)N1CCN(c2cnccn2)CC1 , please look it up.
80 to 100%
